Parameter: pIC50. Scope: all listed entries.
test system: WSU-DLCL2 cell line; test: Cell proliferation analysis (Cell Titer Glo, 6 days); format: cell-based; conditions: Homo sapiens, WSUDLCL2, 144 h; WSU-DLCL2 cells, 6 days incubation, cell viability by ATP (Cell Titer Glo)
pIC50: −log10 of the molar value.

• CCN(c1cc(Cl)cc(C(=O)NCCc2ncc[nH]2)c1C)[C@H]1CC[C@H](N(C)C)CC1 [Cpd 10] = < 4.30
• CCN(c1cc(Cl)cc(C(=O)NCc2ccn(C)n2)c1C)C1CCOCC1 [Cpd 28] = < 4.30
• CCN(c1cc(Cl)cc(C(=O)NCc2cncn2C)c1C)C1CCOCC1 [Cpd 22] = < 4.30

Request: # input compound: CCN(c1cc(Cl)cc(C(=O)NCc2nccn2C)c1C)C1CCOCC1 [Cpd 23] ; wanted: its pIC50
Result: < 4.30

Request: # input compound: CCN(c1cc(Cl)cc(C(=O)NCc2cccn3ccnc23)c1C)[C@H]1CC[C@H](N(C)C)CC1 [Cpd 3] ; wanted: its pIC50
Result: < 4.60

Request: # input compound: CCN(c1cc(Cl)cc(C(=O)NCc2c[nH]cn2)c1C)C1CCOCC1 [Cpd 30] ; wanted: its pIC50
Result: 4.36

Request: # input compound: CCN(c1cc(Cl)cc(C(=O)NCc2cc(C)on2)c1C)C1CCOCC1 [Cpd 29] ; wanted: its pIC50
Result: < 4.30

Request: # input compound: CCN(c1cc(Cl)cc(C(=O)NCc2c(C)ccn3ccnc23)c1C)[C@H]1CC[C@H](N(C)C)CC1 [Cpd 2] ; wanted: its pIC50
Result: < 4.60

Request: # input compound: CCN(c1cc(Cl)cc(C(=O)NCc2cn(C)cn2)c1C)C1CCOCC1 [Cpd 25] ; wanted: its pIC50
Result: < 4.30
